- System Tested: MAP kinase-activated protein kinase 5 (Homo sapiens)
- Sequence (Q8IW41 whole entry): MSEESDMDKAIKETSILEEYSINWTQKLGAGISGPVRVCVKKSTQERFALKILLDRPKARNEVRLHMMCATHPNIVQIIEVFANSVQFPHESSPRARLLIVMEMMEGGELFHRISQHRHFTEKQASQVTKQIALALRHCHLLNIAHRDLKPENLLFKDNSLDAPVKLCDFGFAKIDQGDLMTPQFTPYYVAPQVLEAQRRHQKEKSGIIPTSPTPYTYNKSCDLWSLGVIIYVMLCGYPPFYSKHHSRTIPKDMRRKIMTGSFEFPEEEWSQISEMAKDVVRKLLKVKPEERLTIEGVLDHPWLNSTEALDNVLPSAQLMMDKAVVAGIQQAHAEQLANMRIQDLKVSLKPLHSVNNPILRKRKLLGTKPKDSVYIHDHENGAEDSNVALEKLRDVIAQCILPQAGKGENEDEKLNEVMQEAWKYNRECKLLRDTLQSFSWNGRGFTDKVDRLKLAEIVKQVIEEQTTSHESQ
- Protocol Summary: Inhibition of recombinant MK5
pIC50: −log10 of the molar value.
Assay Endpoint: pIC50

Consider the molecule CCN1CCN(c2ccc(Nc3cc(N(C)C(=O)Nc4c(Cl)c(OC)cc(OC)c4Cl)ncn3)cc2)CC1.O=P(O)(O)O [INFIGRATINIB PHOSPHATE] and give its recorded pIC50. < 5.00

====

- System Tested: Phosphatidylinositol 4,5-bisphosphate 3-kinase catalytic subunit delta isoform (Homo sapiens, UniProt O00329)
- Sequence (O00329 whole entry, canonical isoform): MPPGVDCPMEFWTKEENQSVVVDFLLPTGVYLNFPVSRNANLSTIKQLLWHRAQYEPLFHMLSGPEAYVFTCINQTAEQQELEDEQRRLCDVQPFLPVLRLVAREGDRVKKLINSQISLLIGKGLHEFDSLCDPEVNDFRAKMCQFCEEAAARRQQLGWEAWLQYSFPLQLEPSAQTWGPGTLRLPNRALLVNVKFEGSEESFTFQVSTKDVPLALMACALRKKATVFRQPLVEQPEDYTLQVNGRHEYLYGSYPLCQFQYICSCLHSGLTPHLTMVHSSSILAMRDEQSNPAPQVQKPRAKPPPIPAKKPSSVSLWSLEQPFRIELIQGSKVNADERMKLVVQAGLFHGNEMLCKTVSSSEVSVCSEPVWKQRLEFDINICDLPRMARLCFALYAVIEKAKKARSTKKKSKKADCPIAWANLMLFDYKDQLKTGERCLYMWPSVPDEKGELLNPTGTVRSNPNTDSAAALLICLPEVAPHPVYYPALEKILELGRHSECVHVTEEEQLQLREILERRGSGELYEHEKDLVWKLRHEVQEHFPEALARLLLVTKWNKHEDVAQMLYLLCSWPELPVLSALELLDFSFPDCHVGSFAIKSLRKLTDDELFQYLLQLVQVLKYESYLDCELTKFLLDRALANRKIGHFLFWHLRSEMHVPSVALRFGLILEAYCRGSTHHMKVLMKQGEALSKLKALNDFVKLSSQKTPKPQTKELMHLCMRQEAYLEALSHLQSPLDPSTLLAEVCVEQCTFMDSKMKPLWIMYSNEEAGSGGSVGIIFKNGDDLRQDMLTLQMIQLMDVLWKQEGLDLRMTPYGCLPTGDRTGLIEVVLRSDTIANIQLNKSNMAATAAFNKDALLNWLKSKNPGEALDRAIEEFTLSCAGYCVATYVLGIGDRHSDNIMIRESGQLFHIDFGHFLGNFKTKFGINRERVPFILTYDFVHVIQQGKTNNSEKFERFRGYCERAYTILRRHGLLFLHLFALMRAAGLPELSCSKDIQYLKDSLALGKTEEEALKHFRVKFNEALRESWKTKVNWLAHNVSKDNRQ
- Protocol Summary: Inhibition of recombinant PI3Kdelta by luminescent kinase assay
Assay Endpoint: IC50

Consider the compound CCN1CCN(c2ccc(Nc3cc(N(C)C(=O)Nc4c(Cl)c(OC)cc(OC)c4Cl)ncn3)cc2)CC1.O=P(O)(O)O [INFIGRATINIB PHOSPHATE] and give its recorded IC50. > 9 µM
